Below: a set of entries, each annotated with reported Emax.
- target system: M2 muscarinic receptor (Homo sapiens)
- Construct: expressed in transfected cells; host or cells: CHO (M2-CHO)
- assay summary: Functional mobilization of intracellular calcium (FLIPR), M2-CHO cells
- Assay type: cell-based
- test parameters: 100% efficacy = maximum response obtained with the Carbachol control

Sample records with Emax:
* COC(=O)CC1CCCC(N2CCC(c3ccccc3OC)CC2)C1 (stereo not drawn) | < 25%
* CCOC(=O)N1CCC(CN2CCC(c3cc(Cl)ccc3OC)CC2)CC1 | 25 to 100%
* COc1ccc(Cl)cc1C1(OC)CCN(C2CCCCC2)CC1 | < 25%

Just so you know, measured Emax for Fc1ccccc1-c1ccccc1C1CCN(C2CC3CC[C@H]2C3)CC1 (stereo in doubt) came out at 25 to 100%

====

- target system: M2 muscarinic receptor (Homo sapiens, UniProt P08172)
- Construct: expressed in transfected cells; host or cells: CHO (M2-CHO)
- Sequence (P08172 whole entry): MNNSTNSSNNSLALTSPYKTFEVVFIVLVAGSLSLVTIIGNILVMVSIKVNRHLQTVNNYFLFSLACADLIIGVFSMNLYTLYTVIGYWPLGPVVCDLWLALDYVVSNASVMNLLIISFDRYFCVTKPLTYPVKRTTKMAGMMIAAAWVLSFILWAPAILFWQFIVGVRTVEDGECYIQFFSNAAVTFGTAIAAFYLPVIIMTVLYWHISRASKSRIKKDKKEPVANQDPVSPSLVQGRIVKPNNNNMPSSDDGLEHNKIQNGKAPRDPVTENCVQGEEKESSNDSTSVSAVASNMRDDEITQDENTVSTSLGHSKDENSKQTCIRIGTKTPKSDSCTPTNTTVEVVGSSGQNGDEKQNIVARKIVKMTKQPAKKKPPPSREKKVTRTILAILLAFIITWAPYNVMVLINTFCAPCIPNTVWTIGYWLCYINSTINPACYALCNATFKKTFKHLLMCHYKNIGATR
- assay summary: Functional mobilization of intracellular calcium (FLIPR), M2-CHO cells
- Format: cell-based
- test parameters: 100% efficacy = maximum response obtained with the Carbachol control
property name: Emax

Below, 6 compounds whose answers are already recorded.
- COc1ccccc1C1CCN(CC2CC3CCC(C3)C2)CC1 (stereo not drawn): < 25%
- Fc1ccc(-c2ccccc2C2CCN([C@H]3C[C@H]4CC[C@H]3C4)CC2)cc1: < 25%
- COc1ccccc1C1CCN(CC2CCOC2)CC1 (stereo not drawn): < 25%
- COc1ccc(F)cc1C1(OC)CCN(C[C@@H]2C[C@H]3C=C[C@H]2C3)CC1: < 25%
- COc1ccccc1C1CCN(C2CC3CCC(C3)C2)CC1 (stereo not drawn): < 25%
- CNC(=O)c1ccc(-c2ccc(OC)c(C3CCN(C4CCOCC4)CC3)c2)cc1Cl: < 25%

The compound CCOC(=O)N1[C@@H]2CC[C@@H]1CC(N1CCC(c3cc(C)ccc3OC)CC1)C2 (stereo partly drawn) on M2 muscarinic receptor (Homo sapiens, UniProt P08172): Emax was 25 to 100%

Entry `CCOC(=O)N1CCC(CN2CCC(c3cc(C(F)(F)F)ccc3C)CC2)CC1` under M2 muscarinic receptor (Homo sapiens, UniProt P08172) had Emax of 25 to 100%

Kindly note: M2 muscarinic receptor (Homo sapiens, UniProt P08172), `COc1ccccc1C1CCN(C2CC(C)(C)CC(C)(C)C2)CC1` , Emax value reported: < 25%

====

- target system: M2 muscarinic receptor (Homo sapiens, UniProt P08172)
- Construct: expressed in transfected cells; host or cells: CHO (M2-CHO)
- assay summary: Functional mobilization of intracellular calcium (FLIPR), M2-CHO cells
- Type: cell-based
- test parameters: 100% efficacy = maximum response obtained with the Carbachol control
Emax overview

- c1ccc(C2CCN([C@H]3C[C@H]4CC[C@H]3C4)CC2)c(-c2ccc3c(c2)OCO3)c1: < 25%

Item: `COc1ccc(F)cc1C1(F)CCN(C[C@H]2C[C@H]3C=C[C@H]2C3)CC1` | Emax: 25 to 100%

// `COc1ccccc1C1(C#N)CCN(C[C@@H]2C[C@H]3C=C[C@H]2C3)CC1` : Emax value = 25 to 100%

Reported Emax for `O=C(COc1ccccc1C1CCN([C@H]2C[C@H]3CC[C@H]2C3)CC1)c1ccc(N2CCCC2)cc1` was 25 to 100%

The compound listed as `CCOC(=O)N1CCC(CN2CCC(c3cccc(C(F)(F)F)c3C)CC2)CC1` shows Emax equal to < 25%

In plain terms, `COc1ccc(F)cc1C1(O)CCN(C[C@H]2C[C@H]3C=C[C@H]2C3)CC1` has a documented Emax of 25 to 100%

Measured Emax of `CCOC(=O)N1CCC(CN2CCC(c3ccc(F)cc3OC)CC2)CC1` : < 25%

====

Emax values for the compounds below.
- target system: M1 muscarinic receptor (Homo sapiens)
- Construct: expressed in transfected cells; host or cells: CHO (M1-CHO)
- assay summary: Functional mobilization of intracellular calcium (FLIPR), M1-CHO cells
- Type: cell-based
- test parameters: 100% efficacy = maximum response obtained with the Carbachol control

Check out these entries, answers already filled in.
- COc1ccc(Cl)cc1C1CCN(C2CCCCCC2)CC1 [Compound 181]: 25 to 100%
- COc1c(F)cc(F)cc1C1CCN([C@H]2C[C@H]3CC[C@H]2C3)CC1 [Compound 165]: 25 to 100%
- CCOc1ccccc1C1CCN([C@H]2C[C@H]3CC[C@H]2C3)CC1 [Compound 68]: 25 to 100%

The compound Cc1ccccc1C1CCN(C2CC3CCC2C3)CC1 (stereo not drawn) [Compound 180] showed Emax equal to 25 to 100%

For record COc1ccccc1C1CCN(C2CCC(C3CCC(=O)CC3)CC2)CC1 (stereo not drawn) [Compound 370] the listed Emax is < 25%

# Emax of CCOC(=O)N1C2CCC1CC(N1CCC(c3cc(-c4ccc(S(=O)(=O)N5CCCC5)cc4)ccc3OC)CC1)C2 (stereo not drawn) [Compound 215] = 25 to 100%

The compound COc1ccc(Cl)cc1C1(F)CCN(CC2CC3CCC2C3)CC1 (stereo not drawn) [Compound 326] showed Emax equal to 25 to 100%

====

Recorded Emax, one value per entry.
- target system: M1 muscarinic receptor (Homo sapiens, UniProt P11229)
- Construct: expressed in transfected cells; host or cells: CHO (M1-CHO)
- Sequence (P11229 whole entry): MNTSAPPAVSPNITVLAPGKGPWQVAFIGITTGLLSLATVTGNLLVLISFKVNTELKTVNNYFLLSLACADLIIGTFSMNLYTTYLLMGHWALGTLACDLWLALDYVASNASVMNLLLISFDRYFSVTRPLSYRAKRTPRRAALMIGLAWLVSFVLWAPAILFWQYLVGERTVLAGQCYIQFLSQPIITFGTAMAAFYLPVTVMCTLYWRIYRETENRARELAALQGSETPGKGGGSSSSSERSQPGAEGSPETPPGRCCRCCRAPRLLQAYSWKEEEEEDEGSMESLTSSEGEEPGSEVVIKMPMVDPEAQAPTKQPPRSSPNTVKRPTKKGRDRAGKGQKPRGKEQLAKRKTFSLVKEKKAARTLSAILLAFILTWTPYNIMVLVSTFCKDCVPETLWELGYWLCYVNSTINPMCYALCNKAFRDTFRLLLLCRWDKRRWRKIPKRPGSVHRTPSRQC
- assay summary: Functional mobilization of intracellular calcium (FLIPR), M1-CHO cells
- Format: cell-based
- test parameters: 100% efficacy = maximum response obtained with the Carbachol control

- COc1ccc(Cl)cc1C1(O)CCN(C2CCC3CCC2C3)CC1 (stereo not drawn) [Compound 228]: < 25%
- Cc1ccccc1C1CCN(CC2CC3C=CC2C3)CC1 (stereo not drawn) [Compound 46]: 25 to 100%
- COc1ccc(Cl)cc1C1(F)CCN([C@@H]2C[C@H]3CC[C@H]2C3)CC1 [Compound 309]: 25 to 100%
- CCOC(=O)N1CCC(N2CCC(O)(c3cc(Cl)ccc3OC)CC2)CC1 [Compound 31]: 25 to 100%
- COc1ccc(F)cc1C1CCN(CC2CC3CCC2CC3)CC1 (stereo not drawn) [Compound 104]: < 25%

// Emax lookup, compound = FC(F)(F)c1ccccc1C1CCN(C2CC3CCC(C3)C2)CC1 (stereo not drawn) [Compound 343] , result: 25 to 100%

# Emax of CCc1ccc(OC)c(C2CCN([C@@H]3C[C@H]4CC[C@H]3C4)CC2)c1 [Compound 260] = 25 to 100%

Query COc1ccc(C(=O)C(C)C)cc1C1CCN(C2CC3CC[C@H]2C3)CC1 (stereo in doubt) [Compound 222] yields Emax of 25 to 100%

# Emax of CCOC(=O)N1CCC(N2CCC(F)(c3cc(F)ccc3OC)CC2)CC1 [Compound 262] = 25 to 100%

Looking up Cc1ccccc1-c1ccccc1C1CCN([C@H]2C[C@H]3CC[C@H]2C3)CC1 [Compound 302] , I see its Emax listed as < 25%

Form: compound = COc1ccccc1C1CCN(C2CCC(C(C)(C)C)CC2)CC1 (stereo not drawn) [Compound 152] ; Emax = < 25%

Reported Emax ( CCN(CC)C(=O)c1ccc(-c2ccc(OC)c(C3CCN([C@H]4C[C@H]5CC[C@H]4C5)CC3)c2)cc1 [Compound 98] ) = < 25%

// sample Clc1ccccc1-c1ccccc1C1CCN([C@H]2C[C@H]3CC[C@H]2C3)CC1 [Compound 88] , its Emax was < 25%

Note to self: Emax recorded for COc1ccc(F)cc1C1CCN(C2CC3CCC(C3)C2)CC1 (stereo not drawn) [Compound 207] was 25 to 100%

Entry COc1ccc(Cl)cc1C1(F)CCN(C[C@H]2C[C@H]3C=C[C@H]2C3)CC1 [Compound 213] ; Emax = 25 to 100%

====

Emax: recorded values
- target system: M4 muscarinic receptor (Homo sapiens)
- Construct: expressed in transfected cells; host or cells: CHO (M4-CHO)
- Sequence (P08173 1-479): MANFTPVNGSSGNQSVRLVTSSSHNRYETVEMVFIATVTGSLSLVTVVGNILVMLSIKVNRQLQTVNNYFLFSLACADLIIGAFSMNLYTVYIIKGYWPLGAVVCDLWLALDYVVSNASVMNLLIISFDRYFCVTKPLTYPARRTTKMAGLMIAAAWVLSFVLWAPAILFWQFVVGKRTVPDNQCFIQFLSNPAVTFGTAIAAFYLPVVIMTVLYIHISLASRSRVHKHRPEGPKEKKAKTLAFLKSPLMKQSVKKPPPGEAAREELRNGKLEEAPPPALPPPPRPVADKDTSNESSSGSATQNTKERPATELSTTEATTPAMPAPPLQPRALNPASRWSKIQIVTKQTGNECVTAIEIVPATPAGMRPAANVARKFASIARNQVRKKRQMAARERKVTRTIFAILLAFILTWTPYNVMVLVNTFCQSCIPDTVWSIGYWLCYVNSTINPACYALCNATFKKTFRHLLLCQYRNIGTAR
- assay summary: Functional mobilization of intracellular calcium (FLIPR), M4-CHO cells
- Format: cell-based
- test parameters: 100% efficacy = maximum response obtained with the Carbachol control

- COc1ccc(-c2ccc(C(F)(F)F)cc2)cc1C1CCN([C@H]2C[C@H]3CC[C@H]2C3)CC1 [Compound 120]: 25 to 100%
- COc1ccc(C)cc1C1CCN(C2C[C@H]3CC[C@H](C2)C3)CC1 (stereo partly shown) [Compound 246]: 25 to 100%
- CCOC(=O)N1C2CCC1CC(N1CCC(c3ccccc3OC(F)(F)F)CC1)C2 (stereo not shown) [Compound 355]: 25 to 100%
- COc1ccccc1C1CCN(CC2CC3CCC2O3)CC1 (stereo not shown) [Compound 218]: 25 to 100%

Measured Emax of COc1ccccc1[C@@H]1CCN([C@@H]2C[C@H]3CC[C@H]2C3)C[C@H]1O [Compound 154] : 25 to 100%

Emax recorded for this molecule, Cc1ccc(-c2ccccc2C2CCN([C@H]3C[C@H]4CC[C@H]3C4)CC2)cc1 [Compound 45] , is 25 to 100%

Measured Emax of COc1ccc(-c2ccc(C(C)=O)cc2)cc1C1CCN([C@H]2C[C@H]3CC[C@H]2C3)CC1 [Compound 7] : 25 to 100%

The value of Emax measured for the molecule Clc1ccc(-c2ccccc2C2CCN([C@H]3C[C@H]4CC[C@H]3C4)CC2)cc1 [Compound 142] turned out to be 25 to 100%

The reported value for COc1ccc(F)cc1C1(O)CCN(C[C@@H]2C[C@H]3C=C[C@H]2C3)CC1 [Compound 60] in terms of Emax is 25 to 100%

For record Cc1ccc(F)cc1C1CCN([C@H]2CC[C@H]3CC[C@H]2C3)CC1 [Compound 81] the listed Emax is 25 to 100%

The molecule CCOC(=O)N1[C@@H]2CC[C@@H]1CC(N1CCC(c3cc(NC(C)=O)ccc3OC)CC1)C2 (stereo partly shown) [Compound 338] showed Emax equal to 25 to 100%

Per the record, Cc1ccc(Cl)cc1C1CCN(CC2C[C@H]3CC[C@H]2C3)CC1 (stereo partly shown) [Compound 315] has Emax of 25 to 100%

Note to self: Emax recorded for COc1ccc(-c2ccc(C(C)(C)C#N)cc2)cc1C1CCN(C2CC3CCC(C3)C2)CC1 (stereo not shown) [Compound 361] was 25 to 100%

Recorded Emax (molecule CCOC(=O)N1CCC(N2CCC(OC)(c3cc(Cl)ccc3OC)CC2)CC1 [Compound 55] ): 25 to 100%

Short answer for CCOC(=O)N1CCC(N2CCC(F)(c3cc(F)ccc3OC)CC2)CC1 [Compound 262] : Emax was 25 to 100%

Query COc1ccc(Cl)cc1C1CCN(CC2CC3CCC2CC3)CC1 (stereo not shown) [Compound 280] yields Emax of 25 to 100%
